Could you please report measured OD450 for the items listed next?
Biological target: T1, human CD22-ECD-His protein (human, UniProt P20273 20-687)
T1 construct: Made in house in HEK293E; also called hCD22-ECD-His; recombinant human CD22-ECD His protein; not shown: His tag
T1 sequence: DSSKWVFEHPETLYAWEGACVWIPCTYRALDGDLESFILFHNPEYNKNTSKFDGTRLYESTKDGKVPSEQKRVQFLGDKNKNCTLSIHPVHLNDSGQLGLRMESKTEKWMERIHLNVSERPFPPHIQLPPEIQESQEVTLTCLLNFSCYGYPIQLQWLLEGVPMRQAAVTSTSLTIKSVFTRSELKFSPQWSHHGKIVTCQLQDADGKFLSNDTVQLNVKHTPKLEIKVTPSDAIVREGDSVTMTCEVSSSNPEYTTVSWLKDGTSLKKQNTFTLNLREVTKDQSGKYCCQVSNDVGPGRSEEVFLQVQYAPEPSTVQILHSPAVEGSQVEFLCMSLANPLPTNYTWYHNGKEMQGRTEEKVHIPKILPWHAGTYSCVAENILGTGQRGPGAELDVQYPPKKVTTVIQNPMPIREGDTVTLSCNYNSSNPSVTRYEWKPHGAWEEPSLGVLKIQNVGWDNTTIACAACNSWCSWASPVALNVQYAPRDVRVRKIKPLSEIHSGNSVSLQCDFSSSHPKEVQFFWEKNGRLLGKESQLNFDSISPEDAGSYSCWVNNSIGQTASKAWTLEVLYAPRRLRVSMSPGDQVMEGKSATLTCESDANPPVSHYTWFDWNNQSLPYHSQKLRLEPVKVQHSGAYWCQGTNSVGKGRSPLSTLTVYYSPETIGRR
Assay: ELISA, Ab 0.0001 nM
# number only, unit OD450 dropped from output

Ask | Fill in: OD450 of F1.120.15 (antibody, human IgG1, kappa, V domains shown, Human-murine chimeric IgG1, kappa) VH: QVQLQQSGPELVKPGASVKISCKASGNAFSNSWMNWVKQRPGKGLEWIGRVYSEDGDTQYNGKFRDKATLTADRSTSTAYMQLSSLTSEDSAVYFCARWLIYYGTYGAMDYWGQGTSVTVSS VL: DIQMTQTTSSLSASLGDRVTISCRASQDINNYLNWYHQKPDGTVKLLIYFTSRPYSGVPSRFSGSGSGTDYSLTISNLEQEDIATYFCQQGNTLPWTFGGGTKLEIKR is ___
Reply | 0.42

Ask | Consider the binder shown here: F2.151.13 (antibody, human IgG1, lambda, V domains shown, Human-murine chimeric IgG1, lambda) VH: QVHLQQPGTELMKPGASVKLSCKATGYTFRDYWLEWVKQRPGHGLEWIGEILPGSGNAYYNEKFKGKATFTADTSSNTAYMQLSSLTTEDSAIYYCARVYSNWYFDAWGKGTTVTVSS VL: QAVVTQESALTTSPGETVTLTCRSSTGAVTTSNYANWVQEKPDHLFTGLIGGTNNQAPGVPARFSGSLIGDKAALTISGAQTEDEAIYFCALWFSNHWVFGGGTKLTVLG What is its recorded OD450?
Reply | 0.2
